Provide the recorded INHIBITION for the entries that follow.
System: Plasmodium berghei
Assay: Screen against P. berghei liver stage (PbLuc), transformed with Luciferase, at 10uM
Format: functional, HepG2
Details: tested at 10 uM
Screen size: about 69,000 compounds; about 8,600 (12%) showed an effect of 50% or more. What follows is part of a selection rich in strong results, with near analogues and random picks from the rest.
Just the number plus its unit, please.

query: Consider the compound shown here: `c1cc2nc(C3CCN(CC4CC4)CC3)nn2cc1N1CCCC1` What is its recorded INHIBITION?
result: 8.47%

query: For the compound shown here, `CC(C)(C)S(=O)(=O)c1ccc(N2CCC(n3cccn3)CC2)cn1` , give the reported INHIBITION.
result: -8.66%

query: Item under review: `COCCN1CCC(c2nc3ccc(N4CCCC4)cn3n2)CC1` . Reported INHIBITION?
result: 52%

query: Query (compound): `COCC(=O)N1CCC(c2nc3ccc(N4CCOCC4)cn3n2)CC1` ; field requested: INHIBITION
result: 45.2%

query: Tell me the measured INHIBITION of `CCN1CCC(c2nc3ccc(NC4CCC4)cn3n2)CC1` , please.
result: 46.6%

Dear colleague, could you please provide INHIBITION for the compounds listed below?
1. CSc1ccc(CCNC(=O)Cc2c(C)n[nH]c2C)cc1
2. COCCN1CCC(c2nc3ccc(NC(C)C)cn3n2)CC1
3. O=C(CN1CCN(CC(O)C2CC2)CC1)NCc1ccc(F)cc1 (configuration not stated)
4. Cc1n[nH]c(C)c1CNC(=O)N(Cc1ccccc1)CC(C)(C)O

result:
1: 40.3%; 2: 19.5%; 3: 1.58%; 4: 68%

For each entry beneath this line, provide reported INHIBITION.
1. Cc1n[nH]c(C)c1CC(=O)NCc1ccccc1Cl
2. CCC(CO)N(Cc1ccsc1)Cc1c(C)nn(C)c1Cl (configuration not stated)
3. Cc1ncsc1CNC(=O)N(Cc1ccccc1)CC(C)(C)O

result:
["64.8%", "27.7%", "47.4%"]

Data credit: ChEMBL document CHEMBL4513216
